// reported inhibition for each item listed
test: inhibitors of TNFa-induced NFkB p65 translocation, primary screen, imaging, HUVEC, MLSMR starter and 10KST1 sets (AID 438); settings: HUVEC TNFa-induced p65 nuclear translocation; at 2 µM, active compounds read high, 0% TNFa-plus-vehicle, 100% no-TNFa wells;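 further: compound added about 3h40 before a 20 min TNFalpha stimulation; signal is the nuclear over cytoplasmic p65 intensity ratio per well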
Report as a plain number; the unit % is understood.

Known inhibition results, listed for orientation:
Compound	Test Result
CCCN1C=CC(=C2C(=O)c3ccccc3C2=O)C=C1	2
Nc1nc2n(n1)C(c1cccc(Br)c1)CC(c1ccccc1)N2 (stereo unspecified)	13.8
COc1cc2c(=O)n(Cc3ccccc3)c(=O)n(CC(=O)NCc3ccco3)c2cc1OC	3.5
Cc1ccc2c(CNCc3ccco3)cc(=O)oc2c1	7.3
CCOC(=O)N1CCN(c2c(NCCN(C)Cc3ccccc3)c(=O)c2=O)CC1	-2
O=C(c1cccnc1)N1CCN(Cc2ccc3c(c2)OCO3)CC1	11

Request: Please give the measured inhibition for this compound: O=C(NC1CCCc2ccccc21)C1CCN(c2nnc(-n3cccc3)s2)CC1 (stereo unspecified)
Result: -6

Request: Please give the measured inhibition for this compound: CCN(CC)C(=O)C1CCCc2c1[nH]c1ccc(Cl)cc21 (stereo unspecified)
Result: -18.9

Request: Please give the measured inhibition for this compound: COc1ccc(CCNC(=O)C2CCN(S(=O)(=O)c3cc(OC)ccc3OC)CC2)cc1
Result: -5.3

Request: Please give the measured inhibition for this compound: CCCn1c(OC)nc2c1c(=O)n(C)c(=O)n2C
Result: -3.7

Request: Please give the measured inhibition for this compound: CCOC(=O)C1CCCN(C(=O)c2sc3nc(-c4ccccc4)cn3c2C)C1 (stereo unspecified)
Result: 13.2

----------
// reported inhibition of aggregation for each item listed
assay: reduction of polyQ htt aggregates in cells – imaging, exon1htt(103Q)mCFP cells, high-content imaging, primary screen (AID 483); conditions: exon1htt(103Q)mCFP cell line, aggregate imaging, at 2 µM; active compounds read high;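 further: compound exposure lasted 3 days before fixation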
Report as a plain number; the unit % is understood.

Molecule	Readout	Quantity Unit	Test Result
COC(=O)c1c(C#N)c(N)nc2c1CCC2	inhibition of aggregation	%	18.2
Cc1ccc2cc(CN(CCN3CCCC3)C(=O)Nc3ccc(F)cc3)c(=O)[nH]c2c1C	inhibition of aggregation	%	-45.2
COc1ccc(S(=O)(=O)N2CCOCC2)cc1C(=O)Nc1cc(C)on1	inhibition of aggregation	%	-3.3

Request: Please give the measured inhibition of aggregation for this molecule: CCn1cc(S(=O)(=O)CC(=O)Nc2ccc(OC)cc2)c2ccccc21
Result: 7

Request: Please give the measured inhibition of aggregation for this molecule: Cc1nc2c(-c3ccc(F)cc3)c(C)nn2c(C)c1CCC(=O)NC(C)CCc1ccco1 (configuration not stated)
Result: -37.7

Request: Please give the measured inhibition of aggregation for this molecule: CCOCCCNC(=O)C1CCN(S(=O)(=O)N(CC(C)C)CC(C)C)CC1
Result: 17.3

Request: Please give the measured inhibition of aggregation for this molecule: CCOc1cc(C(=O)N(C)Cc2cc3cc(OC)ccc3[nH]c2=O)cc(OCC)c1OCC
Result: 18.6

Request: Please give the measured inhibition of aggregation for this molecule: CCCN1CC23C=CC(O2)C(C(=O)O)C3C1=O (configuration not stated)
Result: -27.3

Request: Please give the measured inhibition of aggregation for this molecule: Cc1ccc(-c2nnn(CC(=O)N(Cc3cccs3)C(C(=O)NC(C)(C)C)c3ccc(C)o3)n2)o1 (configuration not stated)
Result: -2.3

Request: Please give the measured inhibition of aggregation for this molecule: CCOC(=O)N1CCN(C(=O)CN(c2ccc(C)cc2)S(=O)(=O)c2c(C)noc2C)CC1
Result: -13

Request: Please give the measured inhibition of aggregation for this molecule: O=C(NCCN1C(=O)C2C3C=CC(C3)C2C1=O)N1CCOCC1 (configuration not stated)
Result: 7.2

Request: Please give the measured inhibition of aggregation for this molecule: COC(=O)c1[nH]c2c(c1C)C(=O)CC(c1cc(OC)ccc1OC)C2 (configuration not stated)
Result: 30.2

Request: Please give the measured inhibition of aggregation for this molecule: CCC(=O)N(CCCN(C)C)c1nc(-c2cc(OC)ccc2OC)cs1
Result: -4.4

Request: Please give the measured inhibition of aggregation for this molecule: CCOC(=O)C1=C(C)OC(N)=C(C#N)C1c1ccoc1 (configuration not stated)
Result: -7.5

Request: Please give the measured inhibition of aggregation for this molecule: O=C(COc1ccccc1Cl)NCCCN1CCOCC1
Result: 0

Request: Please give the measured inhibition of aggregation for this molecule: COc1ccccc1N1CCN(C(=O)c2cc(C3CC3)on2)CC1
Result: -1.6
